The origin of these recorded values is ChEMBL document CHEMBL4376881.

assay: Induction of hemolysis in human erythrocytes assessed as hemoglobin release incubated for 2 hrs by UV absorbance based method; assay type: cell-based; details: erythrocyte
Please respond with reported HC10 for every item in the list.
Numbers only, in µM.

Consider the reported HC10 for these substances:
SUBSTANCE	MEAS_VALUE
H-KQLKLLKKLLKLLK-OH	35.5
H-KLLKLLKKLLKLLK-OH	0.52
H-KELKLLKKLLKLLK-OH	61.7

Input H-KKLKLLKKLLKLLK-OH . Output HC10: 19.5
